Collected pIC50 values appear next to each entry.
Tested on: MCF-7
Assay: MTT cytotoxicity assay, 72 hour incubation
Type: cell-based
Conditions: Homo sapiens, MCF7, 3 runs
Lab note: report pIC50 as minus log10 of the concentration in molar units, number only.

[[record]]
smiles_str = "COc1ccc(C2=CCN3C(=O)c4cc(OC)c(OCc5cccc(COc6cc7c(cc6OC)C(=O)N6CC=C(c8ccc(OC)cc8)C[C@H]6C=N7)n5)cc4N=C[C@@H]3C2)cc1"
recorded_number = 11.22


Attention now turns to another entry.
query: // pIC50 lookup, key: CNS(=O)(=O)c1ccc(C2=CCN3C(=O)c4cc(OC)c(OCc5cccc(COc6cc7c(cc6OC)C(=O)N6CC=C(c8ccc(S(=O)(=O)NC)cc8)C[C@H]6C=N7)n5)cc4N=C[C@@H]3C2)cc1
result: 10.24

* * *

System: SW48
Assay: MTT cytotoxicity assay, 72 hour incubation
Assay type: cell-based
Conditions: Homo sapiens, SW48, 3 runs
IC50 vs 8 pM: less than gives 1; not less than gives -1.

Look over these answered cases.
[[record]]
smiles_str = "COc1ccc(C2=CCN3C(=O)c4cc(OC)c(OCc5cccc(COc6cc7c(cc6OC)C(=O)N6CC=C(c8ccc(OC)cc8)C[C@H]6C=N7)n5)cc4N=C[C@@H]3C2)cc1"
cat = 1

[[record]]
smiles_str = "CNS(=O)(=O)c1ccc(C2=CCN3C(=O)c4cc(OC)c(OCc5cccc(COc6cc7c(cc6OC)C(=O)N6CC=C(c8ccc(S(=O)(=O)NC)cc8)C[C@H]6C=N7)n5)cc4N=C[C@@H]3C2)cc1"
cat = 1

[[record]]
smiles_str = "COc1cc2c(cc1OCc1cccc(COc3cc4c(cc3OC)C(=O)N3CC=C(c5ccsc5)C[C@H]3C=N4)n1)N=C[C@@H]1CC(c3ccsc3)=CCN1C2=O"
cat = -1

[[record]]
smiles_str = "COc1cc2c(cc1OCc1cccc(COc3cc4c(cc3OC)C(=O)N3CC=C(c5cncnc5)C[C@H]3C=N4)n1)N=C[C@@H]1CC(c3cncnc3)=CCN1C2=O"
cat = 1


Continue with the next compound.
query: Given COc1cc2c(cc1OCc1cccc(COc3cc4c(cc3OC)C(=O)N3CC=C(c5cccs5)C[C@H]3C=N4)n1)N=C[C@@H]1CC(c3cccs3)=CCN1C2=O , is recorded IC50 strictly lower than 8 pM?
result: -1
